Each entry below carries its reported self-cleavage kobs at 640 uM GlcN6P.
B1: glmS ribozyme (parent)
chain: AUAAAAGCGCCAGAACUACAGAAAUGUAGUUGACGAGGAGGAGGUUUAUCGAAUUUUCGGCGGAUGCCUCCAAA

# Variants of: B1
# assay name: self-cleavage kobs at 640 uM GlcN6P; higher = faster cleavage; RNA array
# experimental context: with glucosamine-6-phosphate
Fewer inactive variants are shown than the library holds.
observable: self-cleavage kobs at 640 uM GlcN6P

1. A48U G62C C70U ... < 1e-05 s⁻¹
2. G37U A48G C70U ... < 1e-05 s⁻¹
3. C11G A33U C34A G41A U54A ... < 1e-05 s⁻¹
4. C8G G38A ... < 1e-05 s⁻¹
5. A6G G60C ... < 1e-05 s⁻¹
6. G9A G44U A52G U65G ... < 1e-05 s⁻¹
7. U31A G41C ... 6.84e-05 s⁻¹
8. C8A U30G ... < 1e-05 s⁻¹
9. A53U C58A ... 5.94e-05 s⁻¹
10. G32C U65A C67A ... 0.000426 s⁻¹
